Data credit: ChEMBL document CHEMBL3507680

Experiment Notes: Human HepG2 cell viability assay in 384 well format
Type: toxicity, cell-based
Design: dose 125 nL, time 70.5 hour; concentration not given beside the values
Applied Conditions: HepG2 cells, read-out: Inhibition
Result Type: cytotoxicity at 70.5 h (%)
Give the value in % but do not write % after it.

CC(=O)N1CCC2(CC1)c1ncc(-c3ccc(F)cc3)n1CCN2C    -3.18
COCC(c1cccc(C(F)(F)F)c1)N(C)C(=O)c1ccccn1 (configuration not stated)    -4.66
COc1cc(C)ccc1OCCC(=O)N1CCC(C(N)=O)C1 (configuration not stated)    -10.8

Look up cytotoxicity at 70.5 h of "COc1ccc(OCC(=O)NS(=O)(=O)c2cc(C)ccc2C)cc1" and report it.
-6.75

Look up cytotoxicity at 70.5 h of "CC(=O)N1CCC[C@H]1C(=O)NCCCN(C(C)C)S(C)(=O)=O" and report it.
-6.32

====

Reported cytotoxicity at 70.5 h values are given for each entry in this list.
Experiment Notes: Human HepG2 cell viability assay in 384 well format
Format: toxicity, cell-based
Design: dose 125 nL, time 70.5 hour; concentration not given beside the values
Applied Conditions: HepG2 cells, read-out: Inhibition
Give the value in % but do not write % after it.

CN1CCCn2c(nc(CNC(=O)c3ccsc3)cc2=O)C1    -15.1
COc1ccccc1C1CCCN1CC(=O)N1CCC(C(N)=O)CC1 (configuration not stated)    22.3
Cc1cc(C2CCN(S(=O)(=O)c3cn(C)cn3)CC2)ccn1    -9.79
CN1CCN(C(=O)CCCc2ccccn2)c2ccc(F)cc21    14.3

Look up cytotoxicity at 70.5 h of "Cc1c(C(=O)NCC(F)(F)F)nnn1-c1ccccc1Cl" and report it.
-3.49

Look up cytotoxicity at 70.5 h of CCOc1c(Br)cc(CNC(C)c2nnc3n2CCC3)cc1OC (configuration not stated) and report it.
-4.89

Look up cytotoxicity at 70.5 h of Cc1n[nH]cc1CNCC(c1cccc(F)c1)N(C)C (configuration not stated) and report it.
-1.43

Look up cytotoxicity at 70.5 h of "CC(=O)N1CCc2c(nc(N(C)C)nc2NCCc2cccs2)C1" and report it.
-5.76

Look up cytotoxicity at 70.5 h of "Cc1csc(CN2C[C@@H]3COC[C@]3(C(=O)NCc3ccco3)C2)n1" and report it.
14.6

====

Experiment Notes: Human HepG2 cell viability assay in 384 well format
Format: toxicity, cell-based
Set-up: dose 125 nL, time 70.5 hour; concentration not given beside the values
Applied Conditions: HepG2 cells, read-out: Inhibition
Result Type: cytotoxicity at 70.5 h (%)
Give the value in % but do not write % after it.

These recorded examples may help you get a feel for the data.
Cc1nc(CNC(=O)Nc2cc(C(F)(F)F)c[nH]c2=O)cs1    1.62
CCCc1nnsc1C(=O)N1CCN(CC(O)C2CC2)CC1 (stereo unspecified)    14.6
CCC(O)CN1CCN(C(=O)c2cc3ccccc3n2CC)CC1 (stereo unspecified)    12.7
COCCN1CCN(Cc2cnc(C3(C)CCCCO3)nc2)CC1 (stereo unspecified)    0.727

Look up cytotoxicity at 70.5 h of "COCC(=O)N1CCC2(CC1)C(=O)N(Cc1cccnc1)CCN2C" and report it.
28.3

Look up cytotoxicity at 70.5 h of CCc1nc(NC2CC(=O)N(CC3CCCCC3)C2)ncc1C (stereo unspecified) and report it.
-8.17

====

Experiment Notes: Human HepG2 cell viability assay in 384 well format
Assay type: toxicity, cell-based
Design: dose 125 nL, time 70.5 hour; concentration not given beside the values
Applied Conditions: HepG2 cells, read-out: Inhibition
Reported cytotoxicity at 70.5 h values are given for each entry in this list.
Give the value in % but do not write % after it.

CC1CCc2n[nH]c(C(=O)NCCc3ccco3)c2C1 (stereo unspecified)    -2.98
O=c1c(CN2CCCCCC2)coc(O)c1CN1CCOCC1    -2.1
Fc1cnc(N2CC[C@@H](N3CCOCC3)[C@@H]2Cc2ccncc2)nc1    15.9
Cc1cccc(SC2CCN(C(=O)CCCn3cnnn3)CC2)c1    -15.1
Cc1ccc(CN2C[C@@H]3CCN(Cc4cccnc4)C(=O)[C@H]3C2)s1    14.5

Look up cytotoxicity at 70.5 h of "CCCn1ncc(-c2ccnc(NC3CC(C)(C)NC(C)(C)C3)n2)c1C" and report it.
80.1

Look up cytotoxicity at 70.5 h of Cc1ccc(O)c(CNC2CCc3nc(C(C)C)nn3C2)n1 (stereo unspecified) and report it.
-11.7

Look up cytotoxicity at 70.5 h of O=C1NCc2ccccc2CC12CCN(Cc1ccncc1Cl)C2 (stereo unspecified) and report it.
-3.37

Look up cytotoxicity at 70.5 h of NC(=O)C1CCCN(C(=O)c2cccc(OCc3cscn3)c2)C1 (stereo unspecified) and report it.
-9.59

Look up cytotoxicity at 70.5 h of Cc1nc(C)n(CC2CCCCN2Cc2ncc(C(C)(C)C)o2)n1 (stereo unspecified) and report it.
8

Look up cytotoxicity at 70.5 h of "O=C(c1ccoc1)N1CC[C@@H](N2CCOCC2)[C@@H]1Cc1ccccc1" and report it.
-10.9

====

Experiment Notes: Human HepG2 cell viability assay in 384 well format
Format: toxicity, cell-based
Set-up: dose 125 nL, time 70.5 hour; concentration not given beside the values
Applied Conditions: HepG2 cells, read-out: Inhibition
Result Type: cytotoxicity at 70.5 h (%)
Give the value in % but do not write % after it.

These recorded examples may help you get a feel for the data.
c1cc(CNCc2ccnc(N3CCOCC3)c2)c2c(c1)OCO2    -8.43
C=C(C)COc1cccc(C(=O)N(CC)Cc2noc(C)n2)c1    -3.04
CC(C)c1cc(C(=O)N2CCN(Cc3ccco3)CC2)n[nH]1    32.7
COCC(=O)N1CCN(C(=O)c2scnc2C)CC1    -11.5
NC(=O)C1CCN(C(=O)c2ccccc2OCc2ccccc2Cl)CC1    12.3

Look up cytotoxicity at 70.5 h of "OCC1(CCOc2ccccc2)CCN(c2ccc(Cl)cn2)CC1" and report it.
-7.7

====

Experiment Notes: Human HepG2 cell viability assay in 384 well format
Assay type: toxicity, cell-based
Parameters: dose 125 nL, time 70.5 hour; concentration not given beside the values
Applied Conditions: HepG2 cells, read-out: Inhibition
Reported cytotoxicity at 70.5 h values are given for each entry in this list.
Give the value in % but do not write % after it.

O=C(NCC1(c2ccc(F)cc2)CC1)N1CCC2(CCOC2)C1 (stereo unspecified)    13.9
O=S(=O)(C1CC1)N1CCO[C@H]2[C@H](OCCN3CCCC3)CC[C@@H]21    23.9
CCCc1noc(CCC(=O)N2CCCC2Cn2cc(C)cn2)n1 (stereo unspecified)    -10.8
CCC(C)(O)CNC(=O)Nc1ccc(C)cc1Br (stereo unspecified)    -5.82
O=C(NCCN1CCCC1)c1ccc2c(-c3nccs3)noc2c1    -6.42

Look up cytotoxicity at 70.5 h of "Cc1occc1C(=O)N1C[C@@H]2OCCN(C(C)C)[C@@H]2C1" and report it.
5.55

Look up cytotoxicity at 70.5 h of CN1CC2(CNCCN(C(=O)Nc3ccccc3)C2)CC1=O (stereo unspecified) and report it.
-7.57

Look up cytotoxicity at 70.5 h of CNC(=O)C1Cc2ccccc2CN1CCc1cccs1 (stereo unspecified) and report it.
-8.64

Look up cytotoxicity at 70.5 h of "CCOc1ccccc1-c1noc(CN2CCN(CCOC)CC2)n1" and report it.
-6.13

Look up cytotoxicity at 70.5 h of "Cc1ccc(S(=O)(=O)NC[C@H]2OC[C@@H](NCc3cccnc3)[C@@H]2O)cc1" and report it.
-7.82

Look up cytotoxicity at 70.5 h of "O=C1N[C@H]2OCCC[C@H]2[C@H](c2ccccc2)N1" and report it.
-12.3

====

Experiment Notes: Human HepG2 cell viability assay in 384 well format
Type: toxicity, cell-based
Set-up: dose 125 nL, time 70.5 hour; concentration not given beside the values
Applied Conditions: HepG2 cells, read-out: Inhibition
Result Type: cytotoxicity at 70.5 h (%)
Give the value in % but do not write % after it.

These recorded examples may help you get a feel for the data.
O=C([C@@H]1CCO[C@@H]2CCN(CCc3ccccc3)C[C@@H]21)N1CCCC1    15.3
Cc1cc(C)c2ncn(CC(C)(C)CO)c(=O)c2c1    -6.8
COCCNc1nc(N2CCOCC2)nc2nccnc12    -4.36

Look up cytotoxicity at 70.5 h of CCn1nc(C)c(CCNC(=O)C2CCCN(C3CCCC3)C2)c1C (stereo unspecified) and report it.
20.4

Look up cytotoxicity at 70.5 h of CCCOCC1CCN(C(=O)Cn2ncc(N3CCCC3)cc2=O)C1 (stereo unspecified) and report it.
26.8

Look up cytotoxicity at 70.5 h of "CC(=O)c1cc(C(=O)N2Cc3ccccc3OC3(CCOCC3)C2)cs1" and report it.
6.07

Look up cytotoxicity at 70.5 h of "CC(C)(C)c1cnc(CN2CCCS2(=O)=O)o1" and report it.
-1.12

Look up cytotoxicity at 70.5 h of "Cc1cc(CN2CCN(C(=O)Nc3cccnc3)CC2)on1" and report it.
-7.67

Look up cytotoxicity at 70.5 h of "CN1CCCN(c2ncnc(N3CCOCC3)c2N)CC1" and report it.
-6.57

Look up cytotoxicity at 70.5 h of "Cc1noc(C)c1-c1n[nH]c2c1CN(S(=O)(=O)c1cccs1)CC2" and report it.
0.699

Look up cytotoxicity at 70.5 h of "O=C(C1CCOCC1)N1CC[C@H]2[C@H]1CCN2c1nncs1" and report it.
-0.658
